Would you mind telling me the reported binding, % of positive control peptide of each entry?
# target-or-system: T1, MHC class I molecule A*0301 (biotin (bound to streptavidin-coated plate))
# T1 construct: iTopia monomer stripped of placeholder peptide and b2M, then reconstituted with test peptide and fresh b2M; also called A3; HLA-A3
# assay-details: iTopia peptide binding assay

binder ESLHLEDNA [5T4 9-mer peptide 131 (ESLHLEDNA)] , binding, % of positive control peptide observed: 0 % of positive control

Kindly note the recorded binding, % of positive control peptide for DCHMADMVT [5T4 9-mer peptide 150 (DCHMADMVT)] , which is 3 % of positive control

Lookup result for VQGKDRLTC [5T4 9-mer peptide 158 (VQGKDRLTC)] ; measured binding, % of positive control peptide: 6 % of positive control

Documented binding, % of positive control peptide of AELQGLPHI [5T4 9-mer peptide 140 (AELQGLPHI)] : 1 % of positive control

binding, % of positive control peptide in this record for YHYRYEINA [5T4 9-mer peptide 200 (YHYRYEINA)] : 1 % of positive control

According to the records, this binder YRYEINADP [5T4 9-mer peptide 201 (YRYEINADP)] displays binding, % of positive control peptide of 1 % of positive control

The binder listed as NNPWVCDCH [5T4 9-mer peptide 147 (NNPWVCDCH)] has a reported binding, % of positive control peptide of 16 % of positive control

Lab note: measured binding, % of positive control peptide of SADLDCDPI [5T4 9-mer peptide 170 (SADLDCDPI)] was 4 % of positive control

// LTCAYPEKM [5T4 9-mer peptide 161 (LTCAYPEKM)] : binding, % of positive control peptide value = 8 % of positive control

Recorded result, PWVCDCHMA [5T4 9-mer peptide 148 (PWVCDCHMA)] , binding, % of positive control peptide: 0 % of positive control

Value of measured binding, % of positive control peptide for the entry ADMVTWLKE [5T4 9-mer peptide 152 (ADMVTWLKE)] : 4 % of positive control

Field binding, % of positive control peptide (entry LGIVLALIG [5T4 9-mer peptide 180 (LGIVLALIG)] ) reads 1 % of positive control

The binder DCDPILPPS [5T4 9-mer peptide 172 (DCDPILPPS)] showed binding, % of positive control peptide equal to 3 % of positive control

Sure, the documented binding, % of positive control peptide for DRLTCAYPE [5T4 9-mer peptide 160 (DRLTCAYPE)] is 5 % of positive control

Entry under test: RDHMEGYHY [5T4 9-mer peptide 197 (RDHMEGYHY)] . Its binding, % of positive control peptide was 3 % of positive control

INADPRLTN [5T4 9-mer peptide 203 (INADPRLTN)] has a reported binding, % of positive control peptide of 1 % of positive control

Value of measured binding, % of positive control peptide for the entry NIRDACRDH [5T4 9-mer peptide 194 (NIRDACRDH)] : 0 % of positive control

The binder listed as ACRDHMEGY [5T4 9-mer peptide 196 (ACRDHMEGY)] has a reported binding, % of positive control peptide of 4 % of positive control

The binder identified as LELNSADLD [5T4 9-mer peptide 168 (LELNSADLD)] registered its binding, % of positive control peptide at 5 % of positive control

The recorded binding, % of positive control peptide for LNSADLDCD [5T4 9-mer peptide 169 (LNSADLDCD)] is 3 % of positive control

Reported binding, % of positive control peptide of GKDRLTCAY [5T4 9-mer peptide 159 (GKDRLTCAY)] : 6 % of positive control

Measured binding, % of positive control peptide, DLDCDPILP [5T4 9-mer peptide 171 (DLDCDPILP)] : 4 % of positive control

Input LHLEDNALK [5T4 9-mer peptide 132 (LHLEDNALK)] . Output binding, % of positive control peptide: 5 % of positive control

Data point: HLESLHLED [5T4 9-mer peptide 130 (HLESLHLED)] ; binding, % of positive control peptide = 2 % of positive control

The recorded binding, % of positive control peptide for entry ETEVVQGKD [5T4 9-mer peptide 156 (ETEVVQGKD)] equals 3 % of positive control

Given item DNALKVLHN [5T4 9-mer peptide 134 (DNALKVLHN)] , the value recorded as its binding, % of positive control peptide is 0 % of positive control

# binding, % of positive control peptide (binder: EGYHYRYEI [5T4 9-mer peptide 199 (EGYHYRYEI)] ) is 0 % of positive control

Kindly note the recorded binding, % of positive control peptide for GAIFLLVLY [5T4 9-mer peptide 184 (GAIFLLVLY)] , which is 5 % of positive control

binding, % of positive control peptide recorded for this binder, CAYPEKMRN [5T4 9-mer peptide 162 (CAYPEKMRN)] , is 4 % of positive control

Memo: MRNRVLLEL [5T4 9-mer peptide 165 (MRNRVLLEL)] , reported binding, % of positive control peptide: 4 % of positive control

Form field binding, % of positive control peptide, entry SFRNLTHLE [5T4 9-mer peptide 127 (SFRNLTHLE)] : 1 % of positive control

For record LTYVSFRNL [5T4 9-mer peptide 125 (LTYVSFRNL)] the listed binding, % of positive control peptide is 20 % of positive control
